# SYSTEM NAME: T1, human GFRAL (human, UniProt Q6UXV0 19-394)
# T1 sequence (looked up): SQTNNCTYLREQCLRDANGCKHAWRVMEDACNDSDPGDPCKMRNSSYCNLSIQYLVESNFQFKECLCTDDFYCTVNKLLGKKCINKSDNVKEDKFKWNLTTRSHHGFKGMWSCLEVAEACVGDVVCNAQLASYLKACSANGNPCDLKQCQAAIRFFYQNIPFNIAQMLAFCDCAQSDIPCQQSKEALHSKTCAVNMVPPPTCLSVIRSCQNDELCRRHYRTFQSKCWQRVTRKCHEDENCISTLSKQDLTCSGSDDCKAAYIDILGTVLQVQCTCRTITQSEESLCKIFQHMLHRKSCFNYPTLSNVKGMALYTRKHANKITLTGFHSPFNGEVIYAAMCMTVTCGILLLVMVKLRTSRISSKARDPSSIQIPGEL
# PROCEDURE SUMMARY: cell-based or functional assay
Threshold 60 pM. GDF15 activity (EC50, pM, 1% HSA) below it: criterion met. GDF15 activity (EC50, pM, 1% HSA) at it or above: criterion not met.

Solved entries:
MLC107 (ligand, Moiety B (HOOC-(CH2)16-CO-gGlu-2XADO-EDA-CO-CH2) on 25C of Linker (56C of fusion polypeptide)) HGEGTFTSDVSSYLEEQAAKEFIAWLVRGGGGAQPGAQPGAQPGAQPGAQPGAQPCQAPGAQPGQEPGAQPGQEPGAQPGQEPGAQPGQEPGAQPGQEPGAQPGQEPGAQPARQGDHCPLGPGRCCRLHTVRASLEDLGWADWVLSPREVQVTMCIGACPSQFRAANLHAQIKTSLHRLKPDTVPAPCCVPASYNPMVLIQKTDTGVSLQTYDDLLAKDCHCI = criterion met
MLC087 (ligand, Moiety B (HOOC-(CH2)16-CO-gGlu-2XADO-EDA-CO-CH2) on 41C of Linker (72C of fusion polypeptide)) HGEGTFTSDVSSYLEEQAAKEFIAWLVRGGGGAQPGAQPGAQPGAQPGAQPGAQPGAQPGAQPGQEPGAQPCQEPGAQPGQEPGAQPGQEPGAQPGQEPGAQPGQEPGAQPARQGDHCPLGPGRCCRLHTVRASLEDLGWADWVLSPREVQVTMCIGACPSQFRAANLHAQIKTSLHRLKPDTVPAPCCVPASYNPMVLIQKTDTGVSLQTYDDLLAKDCHCI = criterion met
MLC123 (ligand, Moiety B (HOOC-(CH2)16-CO-gGlu-2XADO-EDA-CO-CH2) on 79C of Linker (110C of fusion polypeptide)) HGEGTFTSDVSSYLEEQAAKEFIAWLVRGGGGAQPGAQPGAQPGAQPGAQPGAQPGAQPGAQPGQEPGAQPGQEPGAQPGQEPGAQPGQEPGAQPGQEPGAQPGQEPGQCPARQGDHCPLGPGRCCRLHTVRASLEDLGWADWVLSPREVQVTMCIGACPSQFRAANLHAQIKTSLHRLKPDTVPAPCCVPASYNPMVLIQKTDTGVSLQTYDDLLAKDCHCI = criterion not met
MLC093 (ligand, Moiety B (HOOC-(CH2)16-CO-gGlu-2XADO-EDA-CO-CH2) on 33C of Linker (64C of fusion polypeptide)) HGEGTFTSDVSSYLEEQAAKEFIAWLVRGGGGAQPGAQPGAQPGAQPGAQPGAQPGAQPGAQPCQEPGAQPGQEPGAQPGQEPGAQPGQEPGAQPGQEPGAQPGQEPGAQPARQGDHCPLGPGRCCRLHTVRASLEDLGWADWVLSPREVQVTMCIGACPSQFRAANLHAQIKTSLHRLKPDTVPAPCCVPASYNPMVLIQKTDTGVSLQTYDDLLAKDCHCI = criterion not met

I'd appreciate it if you could check whether MLC127 (ligand, Moiety B (HOOC-(CH2)16-CO-gGlu-2XADO-EDA-CO-CH2) on 26C of GLP-1 (20C of fusion polypeptide)) HGEGTFTSDVSSYLEEQAACEFIAWLVRGGGGAQPGAQPGAQPGAQPGAQPGAQPGAQPGAQPGQEPGAQPGQEPGAQPGQEPGAQPGQEPGAQPGQEPGAQPGQEPGAQPARQGDHCPLGPGRCCRLHTVRASLEDLGWADWVLSPREVQVTMCIGACPSQFRAANLHAQIKTSLHRLKPDTVPAPCCVPASYNPMVLIQKTDTGVSLQTYDDLLAKDCHCI has GDF15 activity (EC50, pM, 1% HSA) smaller than 60 pM.
criterion not met
